Cited source: patent US7968548B2

- Tgt: MC1-R (Mus musculus)
- Construct: from B-16 mouse melanoma cells (containing endogenous MC1-R); endogenous in cells; host or cells: B-16 mouse melanoma cells (membrane homogenates)
- Sequence (Q01727 whole entry): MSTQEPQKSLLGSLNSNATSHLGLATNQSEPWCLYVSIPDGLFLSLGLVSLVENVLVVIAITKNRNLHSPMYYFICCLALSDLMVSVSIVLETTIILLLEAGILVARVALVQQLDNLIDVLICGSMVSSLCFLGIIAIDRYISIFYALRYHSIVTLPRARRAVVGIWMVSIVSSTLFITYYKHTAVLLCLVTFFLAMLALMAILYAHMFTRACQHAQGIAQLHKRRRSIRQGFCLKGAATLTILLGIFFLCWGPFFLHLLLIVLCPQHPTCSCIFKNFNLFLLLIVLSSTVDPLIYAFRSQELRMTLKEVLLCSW
- Experimental protocol: Competitive inhibition binding assay using [I125]-NDP-α-MSH, B-16 mouse melanoma cell membranes
- Settings: 1 μM compound, B-16 mouse melanoma cells
Endpoint: inhibition at 1 µM (%)
One number for each entry, in %.

Field: example entries. Status: answers known.
* Cc1ccc(C[C@H](CN2C[C@@H](C)N(C(=O)Cc3ccc4ccccc4c3)C[C@@H]2CCCN(C)C2CCCCC2N(C)C)N(C)C)c(C)c1 (stereo partly drawn) [Example 8] | 26
* Cc1ccc(C[C@@H](N)CN2C[C@@H](C)N(C(=O)Cc3ccc4ccccc4c3)C[C@@H]2CCCNC2CCCCC2N)c(C)c1 (stereo partly drawn) [Example 6] | 33

Okay, next one:
GET /values?item= Cc1ccc(C[C@H](CN2C[C@@H](C)N(C(=O)Cc3ccc4ccccc4c3)C[C@@H]2CCCN2CCN(C)CC2)N(C)C)c(C)c1 [Example 10] &system= MC1-R (Mus musculus) returns inhibition at 1 µM: 28

###

- Tgt: MC4-R (Homo sapiens, UniProt P32245)
- Sequence (P32245 whole entry): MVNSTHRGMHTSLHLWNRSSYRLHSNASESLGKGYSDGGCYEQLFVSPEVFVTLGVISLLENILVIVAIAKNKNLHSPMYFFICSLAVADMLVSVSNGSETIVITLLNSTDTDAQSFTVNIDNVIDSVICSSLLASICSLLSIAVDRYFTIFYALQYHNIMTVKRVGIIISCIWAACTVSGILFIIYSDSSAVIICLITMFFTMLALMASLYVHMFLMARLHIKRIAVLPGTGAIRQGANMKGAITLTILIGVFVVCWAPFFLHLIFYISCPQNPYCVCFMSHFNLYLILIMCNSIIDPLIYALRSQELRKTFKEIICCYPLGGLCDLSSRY
- Experimental protocol: Competitive inhibition binding assay using [I125]-NDP-α-MSH, HEK-293 membranes, recombinant hMC4-R
- Parameters: expressed in transfected cells; host or cells: HEK-293
- Description: A competitive inhibition binding assay was performed using membrane homogenates prepared from HEK-293 cells that express recombinant hMC4-R, hMC3-R, or hMC5-R, and from B-16 mouse melanoma cells (containing endogenous MC1-R). […] Filters were dried and counted in a gamma counter for bound radioactivity. […] Maximal specific binding (100%) was defined as the difference in radioactivity (cpm) bound to cell membranes in the absence and presence of 1 μM NDP-α-MSH. […]
Rule: measured Ki below 40 nM gets satisfied; anything equal to or greater than 40 nM gets not satisfied.

is_below(Ki, 40 nM) for Cc1ccc(C[C@@H](N)CN2C[C@@H](C)N(C(=O)Cc3ccc4ccccc4c3)C[C@@H]2CCCNC2CCCCC2N)c(C)c1 (stereo partly drawn) ?
not satisfied

Does this compound meet the criterion Ki < 40 nM? `C[C@@H]1CN(C(=O)[C@H](N)Cc2ccc(Cl)c(Cl)c2)[C@@H](CCCNCCN)CN1C(=O)[C@H](N)Cc1ccc(Cl)c(Cl)c1`
satisfied

Regarding `CC(C)C[C@@H]1CN(C(=O)[C@H](N)Cc2ccc3ccccc3c2)[C@@H](CCCNCCN)CN1C(=O)[C@H](N)Cc1ccc2ccccc2c1` , kindly confirm whether its Ki is beneath 40 nM.
satisfied

Quick check: does `Cc1ccc(C[C@@H](N)C(=O)N2C[C@H](CCCNCCN)N(C(=O)[C@H](N)Cc3ccc(C)cc3C)C[C@H]2CC(C)C)c(C)c1` have Ki under 40 nM?
not satisfied

Please check: Ki for `Cc1ccc(C[C@@H](N)C(=O)N2C[C@@H](C)N(C(=O)[C@H](N)Cc3ccc(C)cc3C)C[C@@H]2CCCNCCN)c(C)c1` , strictly under 40 nM or not?
not satisfied

Regarding `CC(C)C[C@@H]1CN(C(=O)[C@H](N)Cc2ccc(Cl)cc2Cl)[C@@H](CCCCNCCN)CN1C(=O)Cc1ccc2ccccc2c1` , kindly confirm whether its Ki is beneath 40 nM.
satisfied

Bench note: check whether `CC(C)C[C@@H]1CN(C(=O)[C@H](N)Cc2ccc3ccccc3c2)[C@@H](CCCCNCCN)CN1C(=O)[C@H](N)Cc1ccc2ccccc2c1` shows Ki below 40 nM
satisfied

###

- Tgt: MC4-R (Homo sapiens, UniProt P32245)
- Experimental protocol: Competitive inhibition binding assay using [I125]-NDP-α-MSH, HEK-293 membranes, recombinant hMC4-R
- Design: expressed in transfected cells; host or cells: HEK-293
- Settings: 1 μM compound
Endpoint: inhibition at 1 µM (%)
Give bare numbers, in %.

// worked examples, inhibition at 1 µM included
• C[C@@H]1CN(C(=O)[C@H](N)Cc2ccc3ccccc3c2)[C@@H](CCCNCCN)CN1C(=O)[C@H](N)Cc1ccc2ccccc2c1 [Example 27] = 93
• CC(C)C[C@@H]1CN(C[C@@H](Cc2ccc(Cl)cc2Cl)N(C)C)[C@@H](CCCN(C)CCN)CN1C(=O)Cc1ccc2ccccc2c1 [Example 32] = 91
• Cc1ccc(C[C@@H](N)CN2C[C@@H](C)N(C(=O)Cc3ccc4ccccc4c3)C[C@@H]2CCCN2CCNCC2)c(C)c1 [Example 4] = 55
• C[C@@H]1CN(C(=O)[C@H](N)Cc2ccc(Cl)cc2Cl)[C@@H](CCCNCCN)CN1C(=O)[C@H](N)Cc1ccc(Cl)cc1Cl [Example 25] = 98
• Cc1ccc(C[C@@H](N)C(=O)N2C[C@@H](C)N(C(=O)[C@H](N)Cc3ccc(C)cc3C)C[C@@H]2CCCNCCN)c(C)c1 [Example 26] = 96

Here is another compound to look at.
For reference, reported inhibition at 1 µM for Cc1ccc(C[C@H](CN2C[C@@H](C)N(C(=O)Cc3ccc4ccccc4c3)C[C@@H]2CCCN(C)C2CCCCC2N(C)C)N(C)C)c(C)c1 (stereo partly drawn) [Example 8] stands at 52

###

- Tgt: MC4-R (Homo sapiens, UniProt P32245)
- Experimental protocol: Competitive inhibition binding assay using [I125]-NDP-α-MSH, HEK-293 membranes, recombinant hMC4-R
- Design: expressed in transfected cells; host or cells: HEK-293
- Settings: 1 μM compound
Param threshold (80%) applies to inhibition at 1 µM; output Satisfied when value >= threshold, Not satisfied when value < threshold.

- CC(C)C[C@@H]1CN(C[C@H](N)Cc2ccc(Cl)cc2Cl)[C@@H](CCCNCCCCCN)CN1C(=O)Cc1ccc2ccccc2c1 [Example 31]: Satisfied

Form field: inhibition at 1 µM at least 80%? Entry: Cc1ccc(C[C@@H](N)C(=O)N2C[C@H](CCCCNCCN)N(C(=O)[C@H](N)Cc3ccc(C)cc3C)C[C@H]2CC(C)C)c(C)c1 [Example 21]
Satisfied

I'd appreciate it if you could say whether CC(C)C[C@@H]1CN(C(=O)[C@H](N)Cc2ccc3ccccc3c2)[C@@H](CCCNCCN)CN1C(=O)[C@H](N)Cc1ccc2ccccc2c1 [Example 13] has inhibition at 1 µM at least equal to 80%.
Satisfied

Is it the case that CC(C)C[C@@H]1CN(C[C@H](N)Cc2ccc(Cl)cc2Cl)[C@@H](CCCNCCCN)CN1C(=O)Cc1ccc2ccccc2c1 [Example 29] has inhibition at 1 µM reaching or exceeding 80%?
Satisfied

Given Cc1ccc(C[C@@H](N)C(=O)N2C[C@H](CCCNCCN)N(C(=O)[C@H](N)Cc3ccc(C)cc3C)C[C@H]2CC2CCCCC2)c(C)c1 [Example 14] , state whether its inhibition at 1 µM is at least 80%.
Satisfied

###

- Tgt: MC3-R (Homo sapiens, UniProt P41968)
- Construct: expressed in transfected cells; host or cells: HEK-293
- Sequence (P41968 whole entry): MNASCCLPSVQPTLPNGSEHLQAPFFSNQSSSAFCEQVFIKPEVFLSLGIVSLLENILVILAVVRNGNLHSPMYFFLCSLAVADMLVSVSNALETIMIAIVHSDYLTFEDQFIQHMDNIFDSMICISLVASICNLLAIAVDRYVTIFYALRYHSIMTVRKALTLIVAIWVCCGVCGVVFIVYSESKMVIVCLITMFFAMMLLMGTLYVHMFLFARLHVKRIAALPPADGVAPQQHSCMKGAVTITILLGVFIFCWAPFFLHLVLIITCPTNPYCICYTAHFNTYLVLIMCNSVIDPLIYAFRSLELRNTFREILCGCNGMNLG
- Experimental protocol: Competitive inhibition binding assay using [I125]-NDP-α-MSH, HEK-293 membranes, recombinant hMC3-R
Endpoint: Ki (nM)
Numbers only, in nM.

Hi team, please reply with Ki for each item in this list.
1. CC(C)C[C@@H]1CN(C(=O)[C@H](N)Cc2ccc(Cl)cc2Cl)[C@@H](CCCCNCCN)CN1C(=O)[C@H](N)Cc1ccc(Cl)cc1Cl
2. CC(C)C[C@@H]1CN(C[C@H](N)Cc2ccc(Cl)cc2Cl)[C@@H](CCCNCCN)CN1C(=O)Cc1ccc2ccccc2c1
3. Cc1ccc(C[C@@H](N)CN2C[C@@H](C)N(C(=O)Cc3ccc4ccccc4c3)C[C@@H]2CCCNC2CCCCC2N)c(C)c1 (stereo partly drawn)
4. NCCNCCCC[C@H]1CN(C(=O)[C@H](N)Cc2ccc(Cl)cc2Cl)[C@H](CC2CCCCC2)CN1C(=O)[C@H](N)Cc1ccc(Cl)cc1Cl
5. CC(C)C[C@@H]1CN(C(=O)[C@H](N)Cc2ccc(Cl)c(Cl)c2)[C@@H](CCCCNCCN)CN1C(=O)[C@H](N)Cc1ccc(Cl)c(Cl)c1
6. CC(C)C[C@@H]1CN(C(=O)[C@H](N)Cc2ccc(Cl)cc2Cl)[C@@H](CCCCNCCN)CN1C(=O)Cc1ccc2ccccc2c1

1. 327
2. 297
3. 535
4. 443
5. 69
6. 250

Need Ki for each of these compounds.
1. Cc1ccc(C[C@@H](N)C(=O)N2C[C@H](CCCCNCCN)N(C(=O)[C@H](N)Cc3ccc(C)cc3C)C[C@H]2CC(C)C)c(C)c1
2. Cc1ccc(C[C@@H](N)CN2C[C@@H](C)N(C(=O)Cc3ccc4ccccc4c3)C[C@@H]2CCCNCCN)c(C)c1
3. Cc1ccc(C[C@@H](N)CN2C[C@@H](C)N(C(=O)Cc3ccc4ccccc4c3)C[C@@H]2CCCNC2CCNC2)c(C)c1 (stereo partly drawn)
4. CC(C)C[C@@H]1CN(C(=O)[C@H](N)Cc2ccc3ccccc3c2)[C@@H](CCCCNCCN)CN1C(=O)[C@H](N)Cc1ccc2ccccc2c1
5. CC(C)C[C@@H]1CN(C(=O)[C@H](N)Cc2ccc3ccccc3c2)[C@@H](CCCNCCN)CN1C(=O)[C@H](N)Cc1ccc2ccccc2c1
6. NCCNCCCC[C@H]1CN(C(=O)[C@H](N)Cc2ccc3ccccc3c2)[C@H](CC2CCCCC2)CN1C(=O)[C@H](N)Cc1ccc2ccccc2c1
7. CC(C)C[C@@H]1CN(C[C@H](N)Cc2ccc(Cl)cc2Cl)[C@@H](CCCCNCCN)CN1C(=O)Cc1ccc2ccccc2c1
8. CC(C)C[C@@H]1CN(C(=O)[C@H](N)Cc2ccc(Cl)cc2Cl)[C@@H](CCCNCCN)CN1C(=O)[C@H](N)Cc1ccc(Cl)cc1Cl

1: 1050; 2: 320; 3: 395; 4: 321; 5: 127; 6: 435; 7: 190; 8: 574

GET /value?item= `NCCNCCC[C@H]1CN(C(=O)[C@H](N)Cc2ccc3ccccc3c2)[C@H](CC2CCCCC2)CN1C(=O)[C@H](N)Cc1ccc2ccccc2c1` &field=Ki returns 36
